Biological target: Dual specificity protein kinase CLK4 (Homo sapiens)
Experiment: Binding affinity to CLK4 assessed as change in thermal denaturation at 10 uM by thermal stability shift assay
READOUT: ΔTm (°C)

Q: Please report ΔTm with Dual specificity protein kinase CLK4 (Homo sapiens) for item CCN1CCC2(CC1)NC(=O)c1c(c3ccc(Cl)c(Cl)c3n1C)C2C#N (racemic) .
Ans: 1.8

Q: Please report ΔTm with Dual specificity protein kinase CLK4 (Homo sapiens) for item Cn1c2c(c3ccc(Cl)c(Cl)c31)C(C#N)C1(CCN(C(=O)OC(C)(C)C)CC1)NC2=O (racemic) .
Ans: 0

Q: Please report ΔTm with Dual specificity protein kinase CLK4 (Homo sapiens) for item CCC1(CC)NC(=O)c2c(c3ccc(Cl)c(Cl)c3n2C)C1C#N (configuration not stated) .
Ans: 2.8

Q: Please report ΔTm with Dual specificity protein kinase CLK4 (Homo sapiens) for item Cn1c2c(Cl)c(Cl)ccc2c2cc[nH]c(=O)c21 .
Ans: 3.2

Q: Please report ΔTm with Dual specificity protein kinase CLK4 (Homo sapiens) for item Cn1c2c(Cl)c(Cl)ccc2c2cn[nH]c(=O)c21 .
Ans: 0.9

[P] Cn1c2c(c3ccc(Cl)c(Cl)c31)C(CN)C(C)(C)NC2=O (racemic)
[Q] N#CC1c2c([nH]c3c(Cl)c(Cl)ccc23)C(=O)NC12CCCCC2 (racemic)
Q: Would you kindly point out which of P and Q has the smaller ΔTm figure? Record your answer as the label of the chosen record.
Ans: P

* * *

Target: Ribosomal protein S6 kinase alpha-1 (Homo sapiens) (UniProt Q15418)
Sequence (Q15418 whole entry, looked up): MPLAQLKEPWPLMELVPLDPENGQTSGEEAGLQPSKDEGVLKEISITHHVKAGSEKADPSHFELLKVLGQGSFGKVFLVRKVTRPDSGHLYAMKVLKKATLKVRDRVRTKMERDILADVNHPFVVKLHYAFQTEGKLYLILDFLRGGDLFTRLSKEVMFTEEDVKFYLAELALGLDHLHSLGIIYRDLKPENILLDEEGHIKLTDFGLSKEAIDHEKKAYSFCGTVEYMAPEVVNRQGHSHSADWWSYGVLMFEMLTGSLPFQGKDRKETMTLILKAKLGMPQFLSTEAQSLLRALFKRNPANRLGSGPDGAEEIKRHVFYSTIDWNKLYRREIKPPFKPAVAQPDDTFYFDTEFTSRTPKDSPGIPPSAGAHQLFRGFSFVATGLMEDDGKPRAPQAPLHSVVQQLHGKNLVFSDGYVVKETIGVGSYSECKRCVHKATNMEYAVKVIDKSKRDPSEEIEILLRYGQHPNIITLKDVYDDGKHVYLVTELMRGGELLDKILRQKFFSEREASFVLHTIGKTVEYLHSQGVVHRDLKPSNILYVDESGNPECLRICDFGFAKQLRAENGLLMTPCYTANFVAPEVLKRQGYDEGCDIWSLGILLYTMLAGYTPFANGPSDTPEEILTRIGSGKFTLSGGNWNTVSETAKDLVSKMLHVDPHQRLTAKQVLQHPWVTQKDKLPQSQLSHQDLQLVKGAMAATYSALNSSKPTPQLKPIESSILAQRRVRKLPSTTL
Assay: Binding affinity to RSK1 assessed as change in thermal denaturation at 10 uM by thermal stability shift assay
READOUT: ΔTm (°C)

These recorded examples may help you get a feel for the data.
Q: Recall and state the measured ΔTm for CCC1(CC)NC(=O)c2c(c3ccc(Cl)c(Cl)c3n2C)C1C#N (stereo not given) .
Ans: 0.5

Q: Recall and state the measured ΔTm for N#CC1c2c([nH]c3c(Cl)c(Cl)ccc23)C(=O)NC12CCCCC2 (racemic) .
Ans: 0.4

Q: Recall and state the measured ΔTm for Cn1c2c(Cl)c(Cl)ccc2c2cc[nH]c(=O)c21 .
Ans: 4.6

Q: Recall and state the measured ΔTm for CN1CCC2(CC1)NC(=O)c1c(c3ccc(Cl)c(Cl)c3n1C)C2C#N (racemic) .
Ans: 0.5

Q: Recall and state the measured ΔTm for Cn1c2c(Cl)c(Cl)ccc2c2cn[nH]c(=O)c21 .
Ans: 1.7

Q: Recall and state the measured ΔTm for Cn1c2c(c3ccc(Cl)c(Cl)c31)C(C#N)C1(CCOCC1)NC2=O (stereo not given) .
Ans: 0.6

Q: Recall and state the measured ΔTm for CC1(C)NC(=O)c2[nH]c3c(Cl)c(Cl)ccc3c2C1C#N (stereo not given) .
Ans: 1.4

Q: Recall and state the measured ΔTm for Cn1c2c(c3ccc(Cl)c(Cl)c31)C(C#N)C1(CCN(C(=O)OC(C)(C)C)CC1)NC2=O (racemic) .
Ans: 0

[A] Cn1c2c(c3ccc(Cl)c(Cl)c31)C(C#N)C(C)(C)NC2=O (stereo not given)
[B] Cn1c2c(c3ccc(Cl)c(Cl)c31)C(CN)C(C)(C)NC2=O (racemic)
Q: Would you kindly point out which of A and B has the smaller ΔTm figure? Record your answer as the label of the chosen record.
Ans: B

* * *

Item-by-item account of pIC50
Experiment: Growth inhibition of human SEM cells after 48 hrs by WST-1 assay
Assay type: functional, cell-based
pIC50 field: float, defined as -log10 of concentration (mol/L).

Q: Recall and state the measured pIC50 for CC(=O)c1cccc(-c2cnc3ccc(NCC4CC4)nn23)c1 .
Ans: 5.22

Further cases:
Q: Recall and state the measured pIC50 for Cn1c2c(c3ccc(Cl)c(Cl)c31)C(C#N)C1(CCNCC1)NC2=O (racemic) .
Ans: 5.33

* * *

Target: Serine/threonine-protein kinase pim-1 (Homo sapiens)
Sequence (P11309 whole entry, looked up): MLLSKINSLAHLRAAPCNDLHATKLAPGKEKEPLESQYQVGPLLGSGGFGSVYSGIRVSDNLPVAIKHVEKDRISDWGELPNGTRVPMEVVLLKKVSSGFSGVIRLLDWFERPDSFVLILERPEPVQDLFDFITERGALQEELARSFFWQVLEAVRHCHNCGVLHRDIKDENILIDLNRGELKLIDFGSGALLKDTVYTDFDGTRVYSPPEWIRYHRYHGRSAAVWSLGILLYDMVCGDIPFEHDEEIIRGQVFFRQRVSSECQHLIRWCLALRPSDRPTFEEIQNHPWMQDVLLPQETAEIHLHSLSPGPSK
Assay: Binding affinity to PIM1 assessed as change in thermal denaturation at 10 uM by thermal stability shift assay
READOUT: ΔTm (°C)

Q: Recall and state the measured ΔTm for N#CC1c2c([nH]c3c(Cl)c(Cl)ccc23)C(=O)NC12CCCCC2 (racemic) .
Ans: 4.9

[I] CC1(C)NC(=O)c2[nH]c3c(Cl)c(Cl)ccc3c2C1C#N (configuration not stated)
[II] Cn1c2c(c3ccc(Cl)c(Cl)c31)C(C#N)C1(CCN(C(=O)OC(C)(C)C)CC1)NC2=O (racemic)
Q: Between I and II , which one shows the larger ΔTm value? Record your answer as the label of the chosen record.
Ans: I

* * *

Biological target: Serine/threonine-protein kinase 33 (Homo sapiens) (UniProt Q9BYT3)
Sequence (Q9BYT3 whole entry, looked up): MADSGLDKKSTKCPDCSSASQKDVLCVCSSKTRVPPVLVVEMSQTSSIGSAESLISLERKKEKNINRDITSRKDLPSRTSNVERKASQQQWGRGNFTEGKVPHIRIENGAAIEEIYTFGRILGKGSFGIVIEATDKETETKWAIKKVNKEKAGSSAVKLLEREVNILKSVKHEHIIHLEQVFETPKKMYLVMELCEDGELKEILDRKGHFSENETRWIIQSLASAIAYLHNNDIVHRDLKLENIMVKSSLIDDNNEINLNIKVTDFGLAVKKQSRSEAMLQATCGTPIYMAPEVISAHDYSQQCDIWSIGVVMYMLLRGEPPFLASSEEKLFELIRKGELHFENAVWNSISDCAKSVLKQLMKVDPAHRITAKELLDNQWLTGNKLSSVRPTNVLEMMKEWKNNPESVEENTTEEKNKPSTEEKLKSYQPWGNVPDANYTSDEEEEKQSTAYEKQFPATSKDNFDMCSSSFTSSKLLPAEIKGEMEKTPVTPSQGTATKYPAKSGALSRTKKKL
Experiment: Binding affinity to STK33 assessed as change in thermal denaturation at 10 uM by thermal stability shift assay
READOUT: ΔTm (°C)

Q: Recall and state the measured ΔTm for Cn1c2c(c3ccc(Cl)c(Cl)c31)C(C#N)C1(CCOCC1)NC2=O (stereo not drawn) .
Ans: 0.7

Q: Recall and state the measured ΔTm for Cn1c2c(c3ccc(Cl)c(Cl)c31)C(C#N)C1(CCNCC1)NC2=O (racemic) .
Ans: 5.9

Q: Recall and state the measured ΔTm for N#CC1c2c([nH]c3c(Cl)c(Cl)ccc23)C(=O)NC12CCCCC2 (racemic) .
Ans: 0.5

* * *

Molecular target: Dual specificity protein kinase CLK1 (Homo sapiens)
Assay: Binding affinity to CLK1 assessed as change in thermal denaturation at 10 uM by thermal stability shift assay
READOUT: ΔTm (°C)

Q: Recall and state the measured ΔTm for Cn1c2c(Cl)c(Cl)ccc2c2cc(N)[nH]c(=O)c21 .
Ans: 5.9

Q: Recall and state the measured ΔTm for CCN1CCC2(CC1)NC(=O)c1c(c3ccc(Cl)c(Cl)c3n1C)C2C#N (racemic) .
Ans: 4

Q: Recall and state the measured ΔTm for Cn1c2c(c3ccc(Cl)c(Cl)c31)C(C#N)C1(CCCC1)NC2=O (configuration not stated) .
Ans: 4.8

Q: Recall and state the measured ΔTm for Cn1c2c(Cl)c(Cl)ccc2c2cn[nH]c(=O)c21 .
Ans: 3.9

Q: Recall and state the measured ΔTm for CC1(C)NC(=O)c2[nH]c3c(Cl)c(Cl)ccc3c2C1C#N (configuration not stated) .
Ans: 5.3

Q: Recall and state the measured ΔTm for Cn1c2c(c3ccc(Cl)c(Cl)c31)C(CN)C(C)(C)NC2=O (racemic) .
Ans: 5.1

Q: Recall and state the measured ΔTm for Cn1c2c(c3ccc(Cl)c(Cl)c31)C(C#N)C1(CCNCC1)NC2=O (racemic) .
Ans: 7

* * *

Biological target: Casein kinase II subunit alpha' (Homo sapiens) (UniProt P19784)
Sequence (P19784 whole entry, looked up): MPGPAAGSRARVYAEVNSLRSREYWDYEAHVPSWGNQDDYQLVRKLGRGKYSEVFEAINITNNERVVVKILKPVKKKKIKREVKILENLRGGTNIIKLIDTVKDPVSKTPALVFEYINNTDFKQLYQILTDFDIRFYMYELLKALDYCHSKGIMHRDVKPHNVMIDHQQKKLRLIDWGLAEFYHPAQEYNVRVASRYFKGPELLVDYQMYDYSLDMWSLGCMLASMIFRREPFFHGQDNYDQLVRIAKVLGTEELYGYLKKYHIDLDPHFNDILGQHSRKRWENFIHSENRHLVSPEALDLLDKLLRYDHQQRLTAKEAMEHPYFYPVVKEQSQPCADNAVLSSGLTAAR
Assay: Binding affinity to CK2alpha2 assessed as change in thermal denaturation at 10 uM by thermal stability shift assay
READOUT: ΔTm (°C)

These recorded examples may help you get a feel for the data.
Q: Recall and state the measured ΔTm for CN1CCC2(CC1)NC(=O)c1c(c3ccc(Cl)c(Cl)c3n1C)C2C#N (racemic) .
Ans: 2.7

Q: Recall and state the measured ΔTm for Cn1c2c(c3ccc(Cl)c(Cl)c31)C(C#N)C1(CCCC1)NC2=O (stereo unspecified) .
Ans: 1

Q: Recall and state the measured ΔTm for Cn1c2c(Cl)c(Cl)ccc2c2cc[nH]c(=O)c21 .
Ans: 2

Q: Recall and state the measured ΔTm for Cn1c2c(c3ccc(Cl)c(Cl)c31)C(C#N)C1(CCNCC1)NC2=O (racemic) .
Ans: 4.2

[a] CC1(C)NC(=O)c2[nH]c3c(Cl)c(Cl)ccc3c2C1C#N (stereo unspecified)
[b] Cn1c2c(c3ccc(Cl)c(Cl)c31)C(C#N)C1(CCCCC1)NC2=O (racemic)
Q: Would you kindly point out which of a and b has the smaller ΔTm figure? Record your answer as the label of the chosen record.
Ans: b
(b: 0.8 °C, a: 1.9 °C)

* * *

Molecular target: Glycogen synthase kinase-3 beta (Homo sapiens)
Test: Binding affinity to GSK3-beta assessed as change in thermal denaturation at 10 uM by thermal stability shift assay
READOUT: ΔTm (°C)

Q: Recall and state the measured ΔTm for N#CC1c2c([nH]c3c(Cl)c(Cl)ccc23)C(=O)NC12CCCCC2 (racemic) .
Ans: 2.6

Q: Recall and state the measured ΔTm for Cn1c2c(c3ccc(Cl)c(Cl)c31)C(C#N)C1(CCCC1)NC2=O (stereo not drawn) .
Ans: 2.5

Q: Recall and state the measured ΔTm for Cn1c2c(c3ccc(Cl)c(Cl)c31)C(C#N)C1(CCNCC1)NC2=O (racemic) .
Ans: 3.9

* * *

Molecular target: Cyclin-G-associated kinase (Homo sapiens)
Experiment: Binding affinity to GAK assessed as change in thermal denaturation at 10 uM by thermal stability shift assay
READOUT: ΔTm (°C)

These recorded examples may help you get a feel for the data.
Q: Recall and state the measured ΔTm for CCN1CCC2(CC1)NC(=O)c1c(c3ccc(Cl)c(Cl)c3n1C)C2C#N (racemic) .
Ans: 0.9

Q: Recall and state the measured ΔTm for Cn1c2c(c3ccc(Cl)c(Cl)c31)C(C#N)C1(CCN(C(=O)OC(C)(C)C)CC1)NC2=O (racemic) .
Ans: -0.2

Q: Recall and state the measured ΔTm for Cn1c2c(c3ccc(Cl)c(Cl)c31)C(CN)C(C)(C)NC2=O (racemic) .
Ans: 0.7

Q: Recall and state the measured ΔTm for Cn1c2c(c3ccc(Cl)c(Cl)c31)C(C#N)C1(CCCC1)NC2=O (centres undefined) .
Ans: 1.2

Q: Recall and state the measured ΔTm for Cn1c2c(c3ccccc31)C(C#N)C(C)(C)NC2=O (centres undefined) .
Ans: 0

Q: Recall and state the measured ΔTm for Cn1c2c(Cl)c(Cl)ccc2c2cc[nH]c(=O)c21 .
Ans: 3.3

[I] CC1(C)NC(=O)c2[nH]c3c(Cl)c(Cl)ccc3c2C1C#N (centres undefined)
[II] CC(=O)NCC1c2c(n(C)c3c(Cl)c(Cl)ccc23)C(=O)NC1(C)C (racemic)
Q: Would you kindly point out which of I and II has the smaller ΔTm figure? Record your answer as the label of the chosen record.
Ans: II
(II: 0.5 °C, I: 2.5 °C)

Where do these numbers come from? They come from ChEMBL document CHEMBL1944596.
